The following molecules are shown together with reported log10(IC50) values.
- Test system: HT-29
- method notes: Growth inhibition of combretastatin A-4 resistant human HT-29 cells after 72 hrs by MTT assay
- Assay type: functional, cell-based
- condition context: HT-29, 72 h
// units: nM (pre-log); metric: IC50; scale: log10

Known results for molecules:
CCn1c(Cl)c(Cl)c2cc(-c3c(-c4cc(Br)c(OC)c(OC)c4)ncn3C)ccc21	2.90
CCn1cc(Cl)c2cc(-c3c(-c4cc(OC)c(OC)c(OC)c4)ncn3C)ccc21	1.64
COc1cc(-c2ncn(C)c2-c2ccc3c(c2)c(Cl)cn3C)cc(OC)c1OC	1.19
COc1cc(-c2ncn(C)c2-c2ccc3c(c2)c(Cl)cn3C)cc(I)c1OC	1.60
COc1cc(-c2ncn(C)c2-c2ccc3c(c2)c(Cl)c(Cl)n3C)cc(Br)c1OC	2.35

// query Give the reported log10(IC50) for COc1cc(-c2ncn(C)c2-c2ccc3c(c2)c(Cl)cn3C)cc(Br)c1OC.Cl (system: HT-29).
// result 1.37

// query Give the reported log10(IC50) for CCn1cc(Cl)c2cc(-c3c(-c4cc(I)c(OC)c(OC)c4)ncn3C)ccc21 (system: HT-29).
// result 2.25

// query Give the reported log10(IC50) for CCn1cc(Cl)c2cc(-c3c(-c4cc(Br)c(OC)c(OC)c4)ncn3C)ccc21 (system: HT-29).
// result 2.06

// query Give the reported log10(IC50) for COc1cc(-c2ncn(C)c2-c2ccc3c(c2)c(Cl)cn3C)cc(Cl)c1OC (system: HT-29).
// result 1.50
